# Target system: IRAK4 (Homo sapiens)
# Construct: Degradation of IRAK4 in OCI-LY10 was quantitatively measured using Meso Scale Discovery technology; endogenous in cells; host or cells: OCI-LY10
# Assay info: IRAK4 MSD Degradation in OCI-LY10
# Type: cell-based
# Assay conditions: OCI-LY10 cells, 4 hrs incubation, MSD; read-out: IRAK4 degradation in OCI-LY10 at 4 hrs: DC50
Reported endpoint: DC50

For orientation, consider the following solved cases.
Cn1c(=O)n(C2CCC(=O)NC2=O)c2cccc(C[C@@H]3CN(C[C@H]4CC[C@H](n5cc(NC(=O)c6cnn7ccc(N8C[C@H]9C[C@@H]8CO9)nc67)c(C(F)F)n5)CC4)CCO3)c21 (some centres unmarked) :: > 200 nM
COc1cc2nn([C@H]3CC[C@H](CN4CCC5(CC4)CCN(c4cccc6c4n(C)c(=O)n6C4CCC(=O)NC4=O)CC5)CC3)cc2cc1NC(=O)c1cncc(SC(F)(F)F)c1 (some centres unmarked) :: > 200 nM
Cn1c(=O)n(C2CCC(=O)NC2=O)c2cccc(C#CCN3CCN(C[C@H]4CC[C@H](n5cc(NC(=O)c6cnn7ccc(N8CCN(CC(F)(F)F)CC8)nc67)c(C(F)F)n5)CC4)CC3)c21 (some centres unmarked) :: > 200 nM

Enquiry: Record lookup: for IRAK4 (Homo sapiens), what DC50 belongs to CN(C[C@H]1CC[C@H](n2cc(NC(=O)c3cnn4ccc(N5CCCC(C)(C)C5)nc34)c(C(F)F)n2)CC1)C1CCN(c2cccc3c2n(C)c(=O)n3C2CCC(=O)NC2=O)CC1(F)F (some centres unmarked) ?
Return: > 200 nM

Enquiry: Please provide the recorded DC50 for C[C@@H]1CN(c2ccn3ncc(C(=O)Nc4cn([C@H]5CC[C@H](CN(C)C6CCN(c7cccc8c7n(C)c(=O)n8C7CCC(=O)NC7=O)CC6)CC5)nc4C(F)F)c3n2)C[C@@H](C)O1 (some centres unmarked) , tested on IRAK4 (Homo sapiens).
Return: < 10 nM

----------
# Target system: IRAK4 (Homo sapiens, UniProt Q9NWZ3)
# Construct: Degradation of IRAK4 in OCI-LY10 was quantitatively measured using Meso Scale Discovery technology; endogenous in cells; host or cells: OCI-LY10
# Sequence (Q9NWZ3 1-460): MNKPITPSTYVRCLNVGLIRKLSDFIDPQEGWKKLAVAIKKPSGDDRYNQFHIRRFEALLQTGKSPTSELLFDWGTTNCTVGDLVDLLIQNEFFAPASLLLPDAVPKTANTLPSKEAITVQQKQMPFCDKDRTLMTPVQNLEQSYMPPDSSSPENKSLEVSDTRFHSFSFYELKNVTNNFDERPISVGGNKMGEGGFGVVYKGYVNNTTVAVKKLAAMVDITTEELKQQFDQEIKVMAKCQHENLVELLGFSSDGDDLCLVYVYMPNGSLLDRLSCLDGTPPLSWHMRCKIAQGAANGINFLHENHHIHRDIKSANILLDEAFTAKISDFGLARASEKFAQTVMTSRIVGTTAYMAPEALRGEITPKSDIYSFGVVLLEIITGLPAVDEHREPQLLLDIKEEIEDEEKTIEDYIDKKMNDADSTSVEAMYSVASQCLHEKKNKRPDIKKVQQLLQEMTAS
# Assay info: IRAK4 MSD Degradation in OCI-LY10
# Type: cell-based
# Assay conditions: OCI-LY10 cells, 24 hrs incubation, MSD; read-out: IRAK4 degradation in OCI-LY10 at 24 hrs: DC50
Reported endpoint: DC50

Cn1c(=O)n(C2CCC(=O)NC2=O)c2cccc(C#CCN3C4COCC3CN(C[C@H]3CC[C@H](n5cc(NC(=O)c6cnn7ccc(N8C[C@H]9C[C@@H]8CO9)nc67)c(C(F)F)n5)CC3)C4)c21 (some centres unmarked) [I-349] :: > 200 nM
C[C@H]1CN(CCCc2cccc3c2n(C)c(=O)n3C2CCC(=O)NC2=O)CCN1C[C@H]1CC[C@H](n2cc(NC(=O)c3cnn4ccc(N5C[C@H]6C[C@@H]5CO6)nc34)c(C(F)F)n2)CC1 (some centres unmarked) [I-120] :: > 200 nM
CN(C[C@H]1CC[C@H](n2cc(NC(=O)c3cnn4ccc(N5CCOCC5)nc34)c(C(F)F)n2)CC1)C1CCN(c2cccc3c2n(C)c(=O)n3C2CCC(=O)NC2=O)CC1(F)F (some centres unmarked) [I-522] :: 10 to 100 nM
CN(C[C@H]1CC[C@H](n2cc(NC(=O)c3cnn4ccc(N5CC6(CC6)C5)nc34)c(C(F)F)n2)CC1)C1CCN(c2cccc3c2n(C)c(=O)n3C2CCC(=O)NC2=O)CC1(F)F (some centres unmarked) [I-506] :: > 200 nM

Enquiry: Need DC50 of Cn1c(=O)n(C2CCC(=O)NC2=O)c2cccc(CC[C@@H]3CN(C[C@H]4CC[C@H](n5cc(NC(=O)c6cnn7cccnc67)c(C(F)F)n5)CC4)CCO3)c21 (some centres unmarked) [I-397] , thanks.
Return: > 200 nM

----------
# Target system: IRAK4 (Homo sapiens)
# Construct: Degradation of IRAK4 in OCI-LY10 was quantitatively measured using Meso Scale Discovery technology; endogenous in cells; host or cells: OCI-LY10
# Sequence (Q9NWZ3 1-460): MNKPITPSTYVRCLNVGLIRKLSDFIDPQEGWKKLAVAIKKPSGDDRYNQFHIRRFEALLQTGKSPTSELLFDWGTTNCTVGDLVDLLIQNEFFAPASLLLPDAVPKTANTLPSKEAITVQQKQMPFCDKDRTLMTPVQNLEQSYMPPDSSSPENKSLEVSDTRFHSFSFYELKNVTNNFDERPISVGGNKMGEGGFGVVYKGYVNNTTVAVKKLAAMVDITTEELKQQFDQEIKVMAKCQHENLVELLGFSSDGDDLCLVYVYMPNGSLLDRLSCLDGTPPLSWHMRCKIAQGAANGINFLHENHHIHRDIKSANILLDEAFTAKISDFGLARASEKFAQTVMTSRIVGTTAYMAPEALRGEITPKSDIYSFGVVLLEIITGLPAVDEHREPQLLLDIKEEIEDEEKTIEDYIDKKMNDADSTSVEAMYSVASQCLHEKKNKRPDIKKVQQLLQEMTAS
# Assay info: IRAK4 MSD Degradation in OCI-LY10
# Format: cell-based
# Assay conditions: OCI-LY10 cells, 24 hrs incubation, MSD; read-out: IRAK4 degradation in OCI-LY10 at 24 hrs: DC50
# Procedure: Degradation of IRAK4 in OCI-LY10 was quantitatively measured using Meso Scale Discovery technology. […] Compounds were then added to the assay plates with a final top concentration of 1 to 10 μM in a 1:3 dilution series with total of 8 doses. […] The assay plates were then incubated at room temperature for 1 hour, washed 3 times with 150 μL/well TBST buffer, and 150 μL/well MSD reading buffer (Meso Scale Discovery catalog number R92TC-2) was added. […]
The entries below come with measured DC50 values attached.

Recorded results for 2 compounds are shown here.
Cn1c(=O)n(C2CCC(=O)NC2=O)c2cccc(C3=CCN(C[C@H]4CC[C@H](n5cc6cc(NC(=O)c7cccc(C(F)(F)F)n7)c(C(F)F)cc6n5)CC4)CC3F)c21 (stereo partly drawn) [I-726] :: < 10 nM
Cn1c(=O)n(C2CCC(=O)NC2=O)c2cccc(C#CCOC3CCN(C[C@H]4CC[C@H](c5ccc(C(F)F)c(NC(=O)c6cnn7ccc(N8C[C@H]9C[C@@H]8CO9)nc67)c5)CC4)CC3)c21 (stereo partly drawn) :: > 200 nM

Enquiry: Item O=C1CCC(c2cncc3c(C#CCOC4CCN(C[C@H]5CC[C@H](n6cc(NC(=O)c7cnn8ccc(N9C[C@H]%10C[C@@H]9CO%10)nc78)c(C(F)F)n6)CC5)CC4)cccc23)C(=O)N1 (stereo partly drawn) with IRAK4 (Homo sapiens) - DC50?
Return: > 200 nM

----------
# Target system: IRAK4 (Homo sapiens, UniProt Q9NWZ3)
# Construct: Degradation of IRAK4 in OCI-LY10 was quantitatively measured using Meso Scale Discovery technology; endogenous in cells; host or cells: OCI-LY10
# Assay info: IRAK4 MSD Degradation in OCI-LY10
# Type: cell-based
# Assay conditions: OCI-LY10 cells, 24 hrs incubation, MSD; read-out: IRAK4 degradation in OCI-LY10 at 24 hrs: DC50
# Protocol: Degradation of IRAK4 in OCI-LY10 was quantitatively measured using Meso Scale Discovery technology. […] Compounds were then added to the assay plates with a final top concentration of 1 to 10 μM in a 1:3 dilution series with total of 8 doses. […] The assay plates were then incubated at room temperature for 1 hour, washed 3 times with 150 μL/well TBST buffer, and 150 μL/well MSD reading buffer (Meso Scale Discovery catalog number R92TC-2) was added. […]
Reported values of DC50 for individual entries

Sample answers from the record:
Cn1c(=O)n(C2CCC(=O)NC2=O)c2cccc(C3CCN(C[C@H]4CC[C@H](n5cc6cc(NC(=O)c7cccc(C(F)(F)F)n7)ncc6n5)CC4)CC3(F)F)c21 (some centres unmarked) [I-447] :: < 10 nM
O=C1CCC(c2cccc(C#CCOC3CCN(C[C@H]4CC[C@H](n5cc(NC(=O)c6cnn7ccc(N8C[C@H]9C[C@@H]8CO9)nc67)c(C(F)F)n5)CC4)CC3)c2)C(=O)N1 (some centres unmarked) [I-199] :: 10 to 100 nM
Cn1c(=O)n(C2CCC(=O)NC2=O)c2cccc(C#CCOC3CCN(C[C@H]4CC[C@H](n5cc(NC(=O)c6cnn7ccc(N8CC9(CCOC9)C8)nc67)c(C(F)F)n5)CC4)CC3)c21 (some centres unmarked) [I-327] :: < 10 nM
Cn1c(=O)n(C2CCC(=O)NC2=O)c2cccc(C#CCOC3CCN(CC4CCN(c5ccc(C(F)F)c(NC(=O)c6cnn7ccc(N8C[C@H]9C[C@@H]8CO9)nc67)c5)CC4)CC3)c21 (some centres unmarked) [I-176] :: > 200 nM

In the following, a different molecule is considered.
Enquiry: Which DC50 is listed for Cn1c(=O)n(C2CCC(=O)NC2=O)c2cccc(C#CCN3CCN(C[C@H]4CC[C@H](n5cc(NC(=O)c6cncc(C#N)c6)c(C(F)F)n5)CC4)CC3)c21 (some centres unmarked) [I-265] ?
Return: > 200 nM
